tgt: His6-TEV-PPARγ-(234-505) (Homo sapiens, UniProt P37231)
Construct: The His6-TEV-PPARγ-(234-505) protein for assay was expressed and purified; TEV cleavage site (N); made in house
Sequence (P37231 234-505): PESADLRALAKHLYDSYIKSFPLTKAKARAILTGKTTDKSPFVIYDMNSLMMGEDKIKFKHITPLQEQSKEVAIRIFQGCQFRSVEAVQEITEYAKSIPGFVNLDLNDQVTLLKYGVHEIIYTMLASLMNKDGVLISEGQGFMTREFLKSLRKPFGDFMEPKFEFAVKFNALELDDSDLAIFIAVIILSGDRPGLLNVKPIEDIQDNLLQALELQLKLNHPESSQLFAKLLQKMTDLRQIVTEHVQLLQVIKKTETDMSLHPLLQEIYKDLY
procedure_summary: TR-FRET Assay to Measure Co-R Peptide Recruitment to PPARγ
Format: biochemical
condition_parameters: Co-R peptide recruitment to PPARγ; read-out: TR-FRET AC50
Measured AC50, listed per entry for reference.

Sample answers from the record:
>  <compound>
COc1cc(-c2cc(C(=O)N3CCC(C(=O)NC4CCCc5[nH]c(=O)ccc54)CC3)n[nH]2)c(Cl)cn1 (centres unmarked)

>  <tgt>
His6-TEV-PPARγ-(234-505) (Homo sapiens, UniProt P37231)

>  <AC50>
> 1000 nM

$$$$
>  <compound>
COc1cc(-c2cc(C(=O)N3CCC(C(=O)N[C@@H]4CCOc5c(F)ccc(F)c54)CC3)n[nH]2)c(Cl)cn1

>  <tgt>
His6-TEV-PPARγ-(234-505) (Homo sapiens, UniProt P37231)

>  <AC50>
> 1000 nM

$$$$

The measured AC50 that `COc1cc(-c2cc(C(=O)N3CCC(C(=O)NCc4ccc5ncnn5c4)CC3)n[nH]2)c(Cl)cn1` showed for His6-TEV-PPARγ-(234-505) (Homo sapiens, UniProt P37231) is > 1000 nM

The measured AC50 that CCOc1cc(-c2cc(C(=O)N3CCC(C(=O)N[C@H]4CC[C@@](OC)(C(F)(F)F)CC4)CC34CC4)n[nH]2)c(F)cn1 (single isomer, unassigned) showed for His6-TEV-PPARγ-(234-505) (Homo sapiens, UniProt P37231) is > 1000 nM

The measured AC50 that `COc1cc(-c2cc(C(=O)N3CCC(C(=O)NCc4cc(F)cc(C(F)(F)F)c4)CC3)n[nH]2)c(Cl)cn1` showed for His6-TEV-PPARγ-(234-505) (Homo sapiens, UniProt P37231) is > 1000 nM

The measured AC50 that CC1CCC(NC(=O)C2CCN(C(=O)c3cc(-c4ccnc(N(C)C)c4)[nH]n3)CC2)CC1 (centres unmarked) showed for His6-TEV-PPARγ-(234-505) (Homo sapiens, UniProt P37231) is > 1000 nM

The measured AC50 that `COc1cc(-c2cc(C(=O)N3CCC(C(=O)NCc4cc(C)ccn4)CC3)n[nH]2)c(Cl)cn1` showed for His6-TEV-PPARγ-(234-505) (Homo sapiens, UniProt P37231) is > 1000 nM

The measured AC50 that `O=C(NCCc1ccccc1)C1CCN(C(=O)c2cc(-c3ccncc3)[nH]n2)CC1` showed for His6-TEV-PPARγ-(234-505) (Homo sapiens, UniProt P37231) is > 1000 nM

The measured AC50 that COc1cc(-c2cc(C(=O)N3CCC(C(=O)NC(C)c4cnn(C)c4)CC3)n[nH]2)c(Cl)cn1 (centres unmarked) showed for His6-TEV-PPARγ-(234-505) (Homo sapiens, UniProt P37231) is > 1000 nM

The measured AC50 that `COc1cc(-c2cc(C(=O)N3CCC(C(=O)Nc4cc(C(F)(F)F)ccn4)CC3)n[nH]2)c(Cl)cn1` showed for His6-TEV-PPARγ-(234-505) (Homo sapiens, UniProt P37231) is > 1000 nM

The measured AC50 that `CN1CCC(NC(=O)C2CCN(C(=O)c3cc(-c4ccncc4)[nH]n3)CC2)CC1` showed for His6-TEV-PPARγ-(234-505) (Homo sapiens, UniProt P37231) is > 1000 nM

The measured AC50 that `O=C(N[C@@H]1CCN(Cc2ccccc2)C1)C1CCN(C(=O)c2cc(-c3ccncc3)[nH]n2)CC1` showed for His6-TEV-PPARγ-(234-505) (Homo sapiens, UniProt P37231) is > 1000 nM

The measured AC50 that `COc1cc(-c2cc(C(=O)N3CCC(C(=O)NC4CCC(=O)CC4)CC3)n[nH]2)ccn1` showed for His6-TEV-PPARγ-(234-505) (Homo sapiens, UniProt P37231) is > 1000 nM

The measured AC50 that `O=C(NCc1ccncc1)C1CCN(C(=O)c2cc(-c3ccncc3)[nH]n2)CC1` showed for His6-TEV-PPARγ-(234-505) (Homo sapiens, UniProt P37231) is > 1000 nM

The measured AC50 that `Cc1cc(CNC(=O)C2CCN(C(=O)c3cc(-c4ccncc4)[nH]n3)CC2)ccn1` showed for His6-TEV-PPARγ-(234-505) (Homo sapiens, UniProt P37231) is > 1000 nM

The measured AC50 that CCC1(O)CCC(NC(=O)C2CCN(C(=O)c3cc(-c4cc(OC)ncc4Cl)[nH]n3)CC2)CC1 (centres unmarked) showed for His6-TEV-PPARγ-(234-505) (Homo sapiens, UniProt P37231) is > 1000 nM

The measured AC50 that `Cc1cnccc1NC(=O)C1CCN(C(=O)c2cc(-c3ccncc3)[nH]n2)CC1` showed for His6-TEV-PPARγ-(234-505) (Homo sapiens, UniProt P37231) is > 1000 nM
